Target: human MC4R receptor (human, UniProt P32245 1-332)
Sequence (P32245 whole entry): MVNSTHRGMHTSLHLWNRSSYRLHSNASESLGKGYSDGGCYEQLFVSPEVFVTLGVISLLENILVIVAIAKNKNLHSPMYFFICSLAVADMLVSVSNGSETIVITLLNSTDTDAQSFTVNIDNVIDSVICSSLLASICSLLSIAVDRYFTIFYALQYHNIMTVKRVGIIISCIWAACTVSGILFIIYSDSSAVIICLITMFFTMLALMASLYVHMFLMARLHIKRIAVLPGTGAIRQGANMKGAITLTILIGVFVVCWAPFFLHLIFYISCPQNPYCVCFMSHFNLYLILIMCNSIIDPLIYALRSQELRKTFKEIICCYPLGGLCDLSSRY
Test: cell-based or functional assay
Positions of bridges follow the written chain, without caps; N, C: chain ends. Non-standard residues stand in square brackets, D forms with d. 4Pal = N[C@@H](Cc1ccncc1)C(=O)O; Cit = NC(=O)NCCC[C@H](N)C(=O)O; Aib = CC(C)(N)C(=O)O
testReadout: % max activation (%)
The reply should contain only the number, in %.

Worked examples, 3 binders total:
binder | endpointUnit | % max activation
Ac-RCA[Cit][dF]RWC-NH2 (disulfide 2-8) [CTX-1287] | % | 94
Ac-RC[dA][Cit][dF]R[dW]C-NH2 (disulfide 2-8) [CTX-1286] | % | 91
{CH2CO}-[Aib]R[dF]RFC-NH2 (thioether N-6; SMILES CC1(C)NC(=O)CSC[C@@H](C(N)=O)NC(=O)[C@H](Cc2ccccc2)NC(=O)[C@H](CCCNC(=N)N)NC(=O)[C@@H](Cc2ccccc2)NC(=O)[C@H](CCCNC(=N)N)NC1=O) [CTX-1651] | % | 92

Pending binder:
# input # get_value(readout='% max activation', item= Ac-RC[Aib][4Pal][dF]RFC-NH2 (disulfide 2-8; SMILES CC(=O)N[C@@H](CCCNC(=N)N)C(=O)N[C@H]1CSSC[C@@H](C(N)=O)NC(=O)[C@H](Cc2ccccc2)NC(=O)[C@H](CCCNC(=N)N)NC(=O)[C@@H](Cc2ccccc2)NC(=O)[C@H](Cc2ccncc2)NC(=O)C(C)(C)NC1=O) [CTX-1606] )
# output 92
